Task for the reader: assign each of the following sequences its reported apparent Kd.
Test system: MS2 coat protein
Test: apparent Kd, MS2 coat protein; higher = weaker binding; RNA-MaP array; FMN 200 µM where present
Conditions: ligand present: flavin mononucleotide; designed as: OFF switch for flavin mononucleotide
Answer with a number only, understood to be in nM.

# return apparent Kd for GCAGGUUAAGUCAGGAUAUACCUAUGGAUACAUAGGUAGAAGGGACAUGAGGAUCACCCAUGUUCCUCACCUGC , test system: MS2 coat protein
34.3

# return apparent Kd for AUACAUGAGGAUCACCCAUGUGGAUCACCCAUGUAAGAUGGUAGAAGGAUGUUAUUAUUAUUUUCAUAGGAUAUACUAUUUAGU , test system: MS2 coat protein
408

# return apparent Kd for GCUAUUGAUGUAGGAUAUGAUAUAGAAACUAUGUCAGAAGGACAUGAGGAUCACCCAUGUCAAUGGAUGGAGAGAAGAAAUGGC , test system: MS2 coat protein
59.2

# return apparent Kd for AUAUAUAUAUCAGGAUAUGGACAGGCCUGUUCGUAUUAAGACAGUAACAUGAGGAUCACCCAUGUCCAGAAGGGAUAUAUAUAU , test system: MS2 coat protein
50

# return apparent Kd for CUGAGGUCAGGAUAUGCAUGGCGGGACUUGCGUCGUGGCGUGGAGAAGGGACAUGAGGAUCACCCAUGUGGAGA , test system: MS2 coat protein
81.1

# return apparent Kd for GGUUGGCGAGGAUAUACAUGAGGAUCACCCAUGUGGUCCUGAGAUAGAAUAGACCUUUGUAGAAGGCGCGGGUC , test system: MS2 coat protein
136

# return apparent Kd for CGAUGACACAGUCAUCCAAUACGAACAUGAGGAUCACCCAUGUAGGAUAUGGUACUCACAGAGUAGCAGAAGGACAUGUGCCUU , test system: MS2 coat protein
158
